targetSystem: UniProt Q9WTR4
assayOverview: Inhibition of [3H]nisoxetine radioligand binding at the norepinephrine transporter
condition: read-out: IC50 NE [3H]-nisoxetine; Table IV
measureName: IC50 (nM)
Answers are plain numbers, in nM.

As a guide, the following entries are already answered.
COC(=O)CC1C(c2ccc(C)cc2)CC2CCC1N2C (stereo not drawn) [RTI-4229-241] :: 124
CN1[C@H]2CC[C@@H]1[C@@H](C(=O)O)[C@@H](c1ccc(Br)cc1)C2 [RTI-103] :: 17400
CN1[C@H]2CC[C@@H]1[C@@H](C(=O)O)[C@@H](c1ccc(I)cc1)C2 [RTI-102] :: 43400
CN1[C@H]2CC[C@@H]1[C@@H](CO)[C@@H](c1ccc(Cl)cc1)C2 [RTI-93] :: 43.8

Report IC50 for every entry below.
1. CN1C2CCC1[C@@H](CCl)[C@@H](c1ccc(Cl)cc1)C2 (stereo partly drawn) [RTI-4229-108]
2. CC(=O)OC[C@@H]1C2CCC(C[C@@H]1c1ccc(Cl)cc1)N2C (stereo partly drawn) [RTI-4229-105]
3. CN1C2CCC1C(COC(=O)c1ccccc1)C(c1ccc(Cl)cc1)C2 (stereo not drawn) [RTI-4229-123]
4. C=C(C)C1C(c2ccc(Cl)cc2)CC2CCC1N2C (stereo not drawn) [RTI-4229-230]
5. CC1C(c2ccc(Cl)cc2)CC2CCC1N2C (stereo not drawn) [RTI-4229-139]

Reply:
1: 129; 2: 127; 3: 393; 4: 141; 5: 57
